Property: Log2 (fold) (luciferase activity, log2 of the fold difference relative to DMSO controls); scope: individual compounds
test system: Raf-1^gof intestinal tumors; conditions: screen of 480 ICCB compounds in vials; compounds fed to flies with one-day old Raf-1^gof tumors, assessed three days later; esg-Gal4 luciferase; further: test concentration or dose not given here
observable: Log2 (fold) (luciferase activity, log2 of the fold difference relative to DMSO controls)

{"compound": "CCCCC/C=C\\C/C=C\\CCCCCCCC(=O)OC(CO)COC(=O)CCCCCCCCCCCCCCCCC (stereo not drawn)", "reported measurement": "−0.456"}
{"compound": "CC(C)C[C@H](NC(=O)[C@@H](O)[C@H](N)Cc1ccccc1)C(=O)O", "reported measurement": "−0.688"}
{"compound": "Br.NC1CCc2cc(O)c(O)cc2C1 (stereo not drawn)", "reported measurement": "−0.383"}
{"compound": "CCCCCC[C@@H]([C@@H](C)O)n1cnc2c(N)ncnc21.Cl [EHNA HCl]", "reported measurement": "−0.312"}
{"compound": "Oc1ccc(C=Cc2cc(O)cc(O)c2)cc1", "reported measurement": "−0.551"}
{"compound": "COc1c(C=O)c(O)cc2c1C(=O)c1ccccc1C2=O", "reported measurement": "−0.482"}
{"compound": "CN(C)CCCn1cc(C2=C(c3c[nH]c4ccccc34)C(=O)NC2=O)c2ccccc21 [GF-109203X]", "reported measurement": "−0.238"}
{"compound": "C=C1CCC(O)C/C1=C\\C=C1\\CCCC2(C)C1CCC2C(C)CCC(O)C(C)(C)O (stereo not drawn) [24,25-DIHYDROXYVITAMIN D3]", "reported measurement": "−0.363"}
{"compound": "CO[C@H]1C[C@@H]2CC[C@@H](C)[C@@](O)(O2)C(=O)C(=O)N2CCCC[C@H]2C(=O)O[C@H]([C@H](C)C[C@@H]2CC[C@@H](O)[C@H](OC)C2)CC(=O)[C@H](C)/C=C(\\C)[C@@H](O)[C@@H](OC)C(=O)[C@H](C)C[C@H](C)/C=C/C=C/C=C/1C", "reported measurement": "−1.220"}
{"compound": "CC(=O)N[C@@H](CSC/C=C(\\C)CC/C=C(\\C)CCC=C(C)C)C(=O)O", "reported measurement": "−0.664"}
{"compound": "CCCCC/C=C\\CC1OC1CCCCCCCC(=O)O (stereo not drawn)", "reported measurement": "−0.216"}
{"compound": "O=c1oc(Cl)c(Cl)c2ccccc12", "reported measurement": "−0.772"}
{"compound": "CCCCC[C@H](O)/C=C/[C@H]1[C@H](O)CC(=O)[C@@H]1CCCCCCC(=O)O [PROSTAGLANDIN E1]", "reported measurement": "−0.561"}
{"compound": "CCCCC[C@H](O)/C=C/[C@H]1C=CC(=O)[C@@H]1C/C=C\\CCCC(=O)O", "reported measurement": "−0.295"}
{"compound": "OC[C@H]1O[C@@H](n2cnc3cc(Cl)c(Cl)cc32)[C@H](O)[C@@H]1O", "reported measurement": "−0.246"}
{"compound": "O=C(O)c1cc([N+](=O)[O-])ccc1NCCCc1ccccc1", "reported measurement": "−0.439"}
{"compound": "C[C@@H]1C[C@H]2[C@@H]3CCC4=CC(=O)C=C[C@]4(C)[C@@]3(F)[C@@H](O)C[C@]2(C)[C@@]1(O)C(=O)CO", "reported measurement": "−0.245"}
{"compound": "CCCCCCCCCCCCCC(=O)N[C@H](C)[C@@H](O)c1ccccc1", "reported measurement": "−0.266"}
{"compound": "COc1cc2c(cc1OC)-c1c/c(=N\\c3c(C)cc(C)cc3C)n(C)c(=O)n1CC2", "reported measurement": "−0.279"}
{"compound": "Oc1cc(O)cc(/C=C/c2ccc(O)c(O)c2)c1 [Piceatannol, reference compound]", "reported measurement": "−1.020"}
{"compound": "CC(C)[C@@H](O)CC[C@@H](C)[C@H]1CC[C@H]2[C@@H]3CC=C4C[C@@H](O)CC[C@]4(C)[C@H]3CC[C@]12C [24(S)-hydroxycholesterol]", "reported measurement": "−0.244"}
{"compound": "CC/C=C\\C/C=C\\C/C=C\\C/C=C\\C/C=C\\C/C=C\\CCC(=O)O", "reported measurement": "−0.248"}
{"compound": "O=Cc1c2[nH]c3ccccc3c2cc2[nH]c3ccccc3c12 [6-FORMYLINDOLO [3,2-B] CARBAZOLE]", "reported measurement": "−0.273"}
{"compound": "C/C=C/C/C=C/CCC(=O)[C@H]1O[C@H]1C(N)=O", "reported measurement": "−0.474"}
{"compound": "CCCCC[C@H](O)/C=C/[C@H]1C(=O)C[C@H](O)[C@@H]1C/C=C\\CCCC(=O)O [PROSTAGLANDIN D2]", "reported measurement": "−0.413"}
{"compound": "CCCCCCCCCCCCCC(=O)O[C@@H]1[C@@H](C)[C@@]2(O)[C@@H](C=C(CO)C[C@]3(O)C(=O)C(C)=C[C@@H]23)[C@@H]2C(C)(C)[C@]12OC(C)=O [phorbol 12 myristate 13 acetate]", "reported measurement": "−0.323"}
{"compound": "CCCCC/C=C\\C/C=C\\C/C=C\\C=C\\[C@H](CCCC(=O)O)OO [5(S)-HPETE]", "reported measurement": "−0.524"}
{"compound": "CC(=O)O[C@H]1C(=O)[C@@]2(C)[C@H]([C@H](OC(=O)c3ccccc3)[C@]3(O)C[C@H](OC(=O)[C@H](O)[C@@H](NC(=O)c4ccccc4)c4ccccc4)C(C)=C1C3(C)C)[C@]1(OC(C)=O)CO[C@@H]1C[C@@H]2O", "reported measurement": "−1.870"}
{"compound": "COc1cc2ncnc(Nc3cccc(Cl)c3)c2cc1OC", "reported measurement": "−0.655"}
{"compound": "CCCCCC(O)c1cccc(OCc2ccc3ccccc3n2)c1 (stereo not drawn)", "reported measurement": "−0.282"}
